- System: Staphylococcus aureus MSSA (Newman)
- ASSAY NAME: broth microdilution MIC assay, Staphylococcus aureus MSSA (Newman)
- Format: cell-based
- CONDITION DETAILS: MIC100 class score, broth microdilution, 24 h
This listing pairs molecules with measured Antibacterial activity Staphylococcus aureus (MSSA).

// known answers, use as guide
Antibacterial activity Staphylococcus aureus (MSSA) lookup needed for Cc1[nH]c(-c2ccc(-c3ccc(C(F)(F)F)cc3)s2)nc1-c1ccccc1 , thanks.
2 (MIC100 of 11-201 μg/ml)

What Antibacterial activity Staphylococcus aureus (MSSA) value was documented for this molecule, Cc1ccccc1-c1c[nH]c(-c2ccc(-c3ccccc3OC(F)(F)F)o2)n1 ?
3 (MIC100 of 3-10 μg/ml)

What measured Antibacterial activity Staphylococcus aureus (MSSA) goes with Cc1[nH]c(-c2ccc(-c3ccc(OC(F)(F)F)cc3)o2)nc1-c1ccc(Cl)cc1 ?
3 (MIC100 of 3-10 μg/ml)

Find the recorded Antibacterial activity Staphylococcus aureus (MSSA) belonging to Cc1nc(-c2ccc(-c3ccc(F)cc3F)o2)[nH]c1-c1ccc(O)cc1 and report it.
3 (MIC100 of 3-10 μg/ml)

Please give the measured Antibacterial activity Staphylococcus aureus (MSSA) for this molecule: Cc1nc(-c2ccc(-c3ccccc3OC(F)(F)F)o2)[nH]c1-c1cccc(Cl)c1
3 (MIC100 of 3-10 μg/ml)

Now let's try a different one.
For Cc1[nH]c(-c2ccc(-c3ccccc3OC(F)(F)F)o2)nc1-c1ccc(Cl)cc1 , what is its reported Antibacterial activity Staphylococcus aureus (MSSA)?
3 (MIC100 of 3-10 μg/ml)

---

Antibacterial activity Streptococcus pneumoniae overview
- Tested on: Streptococcus pneumoniae (Chester, ATCC49619)
- ASSAY NAME: broth microdilution MIC assay, Streptococcus pneumoniae
- Format: cell-based
- CONDITION DETAILS: MIC100 class score, 24 h

Value lookup for Antibacterial activity Streptococcus pneumoniae; key = Cc1nc(-c2ccc(-c3ccccc3OC(F)(F)F)o2)[nH]c1-c1ccc(Br)cc1
3 (MIC100 of 2-5 μg/ml)

Need Antibacterial activity Streptococcus pneumoniae, item CCCc1nc(-c2ccc(-c3ccc(C(F)(F)F)cc3)o2)[nH]c1C
3 (MIC100 of 2-5 μg/ml)

# Antibacterial activity Streptococcus pneumoniae lookup, item CCCc1[nH]c(-c2ccc(-c3ccccc3C(F)(F)F)o2)nc1C
3 (MIC100 of 2-5 μg/ml)

So what does the record say about Antibacterial activity Streptococcus pneumoniae for Cc1[nH]c(-c2ccc(-c3ccccc3F)o2)nc1-c1ccc(O)cc1 ?
3 (MIC100 of 2-5 μg/ml)

Query molecule follows.
Which Antibacterial activity Streptococcus pneumoniae value belongs to CCCCc1nc(-c2ccc(-c3ccccc3C(F)(F)F)o2)[nH]c1C ?
3 (MIC100 of 2-5 μg/ml)

---

- Tested on: Streptococcus pneumoniae (Chester, ATCC49619)
- ASSAY NAME: broth microdilution MIC assay, Streptococcus pneumoniae
- Assay type: cell-based
- CONDITION DETAILS: MIC100 class score, 24 h
READOUT KIND: Antibacterial activity Streptococcus pneumoniae

Worked cases, Antibacterial activity Streptococcus pneumoniae given:
Tell me the measured Antibacterial activity Streptococcus pneumoniae of CCCc1[nH]c(-c2ccc(-c3cc(F)ccc3C(F)(F)F)o2)nc1C , please.
3 (MIC100 of 2-5 μg/ml)

Given the entry FC(F)(F)Oc1ccccc1-c1ccc(-c2nc(-c3ccc(Cl)cc3Cl)c[nH]2)o1 , report its measured Antibacterial activity Streptococcus pneumoniae.
2 (MIC100 of 6-10 μg/ml)

Dear colleague, I am looking for the recorded Antibacterial activity Streptococcus pneumoniae of the following compound: FC(F)(F)Oc1ccccc1-c1ccc(-c2nc(-c3ccccc3Cl)c[nH]2)o1
3 (MIC100 of 2-5 μg/ml)

Bench note: what Antibacterial activity Streptococcus pneumoniae did CCCc1nc(-c2ccc(-c3c(C)cccc3C)o2)[nH]c1C show?
3 (MIC100 of 2-5 μg/ml)

Continuing:
Any idea what its Antibacterial activity Streptococcus pneumoniae is? The compound is Cc1nc(-c2ccc(-c3ccc(O)cc3F)o2)[nH]c1-c1ccc(O)cc1
3 (MIC100 of 2-5 μg/ml)

Can you share its Antibacterial activity Streptococcus pneumoniae? I mean this compound: Cc1[nH]c(-c2cc(C)n(-c3ccc(Cl)cc3)c2C)nc1-c1ccccc1
3 (MIC100 of 2-5 μg/ml)

Consider the compound CCCc1[nH]c(-c2ccc(-c3cccc4[nH]ccc34)o2)nc1C and give its measured Antibacterial activity Streptococcus pneumoniae.
2 (MIC100 of 6-10 μg/ml)

I am curious: what Antibacterial activity Streptococcus pneumoniae value has been reported for Cc1[nH]c(-c2ccc(-c3ccc(Cl)cc3)s2)nc1-c1ccccc1 ?
3 (MIC100 of 2-5 μg/ml)

Looking for the measured Antibacterial activity Streptococcus pneumoniae of CCCc1nc(-c2ccc(-c3ccccc3OC)o2)[nH]c1C , can you help?
3 (MIC100 of 2-5 μg/ml)

---

Consider compounds characterized by their MIC with Staphylococcus epidermidis (PCI 1200, ATCC12228).

Some entries whose results are on file:
Give the measured MIC of Cc1[nH]c(-c2ccn(-c3ccccc3C(F)(F)F)c2)nc1-c1ccccc1 [Compound 33] .
11 to 201 µg/mL

GET /values?readout=MIC&item= Cc1nc(-c2ccc(-c3ccc(Cl)c(OC(F)(F)F)c3)o2)[nH]c1-c1ccccc1 [Compound 41]
11 to 201 µg/mL

Given the entry Cc1[nH]c(-c2ccc(-c3ccccc3OC(F)(F)F)o2)nc1-c1ccc(Cl)cc1 [Compound 24] , report its measured MIC.
20 to 50 µg/mL

Find the recorded MIC belonging to Cc1[nH]c(-c2ccc(-c3ccc(OC(F)(F)F)cc3Cl)o2)nc1-c1ccc(F)cc1 [Compound 51] and report it.
20 to 50 µg/mL

Looking for the measured MIC of Cc1[nH]c(-c2ccc(-c3ccccc3Cl)o2)nc1-c1ccccc1 [Compound 3] , can you help?
11 to 201 µg/mL

Further cases:
Any idea what its MIC is? The compound is Cc1nc(-c2ccc(-c3ccc(Cl)c(OC(F)(F)F)c3)o2)[nH]c1-c1ccc(F)cc1 [Compound 43]
20 to 50 µg/mL

For the compound FC(F)(F)Oc1ccccc1-c1ccc(-c2nc(-c3ccccc3Cl)c[nH]2)o1 [Compound 67] , what MIC is on record?
11 to 201 µg/mL

Param item = Cc1nc(-c2ccc(-c3ccccc3OC(F)(F)F)o2)[nH]c1-c1cccc(Cl)c1 [Compound 21] ; retrieve measured MIC.
20 to 50 µg/mL

Quick check: MIC of Cc1nc(-c2ccc(-c3cc(C(F)(F)F)cc(C(F)(F)F)c3)o2)[nH]c1-c1ccccc1 [Compound 35] ?
20 to 50 µg/mL

Item under review: Cc1[nH]c(-c2ccc(-c3ccc(Cl)c(C(F)(F)F)c3)o2)nc1-c1ccc(F)cc1 [Compound 42] . Reported MIC?
3 to 10 µg/mL

---

- System: Staphylococcus aureus MRSA (COL)
- ASSAY NAME: broth microdilution MIC assay, Staphylococcus aureus MRSA (COL)
- Type: cell-based
- CONDITION DETAILS: Staphylococcus aureus, MRSA, 24 h, read-out: Antibacterial activity Staphylococcus aureus (MRSA)
List of MIC values.

Check out these entries, answers already filled in.
Could you share what MIC was measured for Cc1nc(-c2ccc(-c3ccc(O)cc3C(F)(F)F)o2)[nH]c1-c1ccccc1 , tested on Staphylococcus aureus MRSA (COL)?
1 to 3 µg/mL

GET /values?readout=MIC&system=Staphylococcus aureus MRSA (COL)&item= Cc1nc(-c2ccc(-c3ccc(O)cc3F)o2)[nH]c1-c1ccccc1
3 to 10 µg/mL

GET /values?readout=MIC&system=Staphylococcus aureus MRSA (COL)&item= Cc1nc(-c2ccc(-c3ccc(Cl)cc3C(F)(F)F)o2)[nH]c1-c1ccccc1
3 to 10 µg/mL

Report MIC for Cc1nc(-c2ccc(-c3ccc4[nH]ccc4c3)o2)[nH]c1-c1ccccc1 tested on Staphylococcus aureus MRSA (COL).
3 to 10 µg/mL

Return MIC measured with Staphylococcus aureus MRSA (COL) given this compound: Cc1nc(-c2ccc(-c3ccc4cc[nH]c4c3)o2)[nH]c1-c1ccccc1
3 to 10 µg/mL

API: value(readout=MIC, system=Staphylococcus aureus MRSA (COL)) for record CCc1ccc(-c2ccc(-c3nc(-c4ccccc4)c(C)[nH]3)o2)cc1
20 to 50 µg/mL

Param readout = MIC; param system = Staphylococcus aureus MRSA (COL); param query = Cc1[nH]c(-c2ccc(-c3ccccc3F)o2)nc1-c1ccccc1 ; response: value
3 to 10 µg/mL

API: value(readout= MIC, system= Staphylococcus aureus MRSA (COL), query= Cc1nc(-c2ccc(-c3ccc(F)cc3F)o2)[nH]c1-c1ccccc1 )
1 to 3 µg/mL

API: value(readout= MIC, system= Staphylococcus aureus MRSA (COL), query= Cc1nc(-c2ccc(-c3cc(C(F)(F)F)cc(C(F)(F)F)c3)o2)[nH]c1-c1ccccc1 )
20 to 50 µg/mL

// lookup MIC | system=Staphylococcus aureus MRSA (COL) | key= Cc1nc(-c2ccc(-c3cccc(O)c3)o2)[nH]c1-c1ccccc1
20 to 50 µg/mL

Continuing:
Hi! What's the reported MIC for COc1ccc(-c2ccc(-c3nc(C)c(-c4ccccc4)[nH]3)o2)c(C(F)(F)F)c1 on Staphylococcus aureus MRSA (COL)?
3 to 10 µg/mL

I'm curious: which MIC was measured for Cc1[nH]c(-c2cnn(-c3ccccc3)c2)nc1-c1ccccc1 tested on Staphylococcus aureus MRSA (COL)?
20 to 50 µg/mL

# get_value(readout= MIC, system= Staphylococcus aureus MRSA (COL)) for Cc1nc(-c2ccc(-c3ccc(O)c(C(F)(F)F)c3)o2)[nH]c1-c1ccccc1
11 to 201 µg/mL

Give Staphylococcus aureus MRSA (COL) MIC for Cc1[nH]c(-c2ccc(-c3ccccc3C(F)(F)F)o2)nc1-c1ccccc1
1 to 3 µg/mL

What measured MIC is associated with Cc1nc(-c2ccc(-c3ccccc3OC(F)(F)F)o2)[nH]c1C on Staphylococcus aureus MRSA (COL)?
1 to 3 µg/mL

Give MIC (Staphylococcus aureus MRSA (COL)) of the following compound: Cc1nc(-c2ccc(-c3ccccc3Br)o2)[nH]c1C
11 to 201 µg/mL

Recall the recorded MIC for Cc1nc(-c2ccc(-c3cc4ccccc4[nH]3)o2)[nH]c1-c1ccccc1 with Staphylococcus aureus MRSA (COL) and state it.
11 to 201 µg/mL

Recall the recorded MIC for Cc1nc(-c2ccc(-c3ccccc3O)o2)[nH]c1-c1ccccc1 with Staphylococcus aureus MRSA (COL) and state it.
20 to 50 µg/mL

Fill in the recorded MIC for this compound, with Staphylococcus aureus MRSA (COL) as test system: Cc1nc(-c2ccc(-c3ccc4occc4c3)o2)[nH]c1-c1ccccc1
20 to 50 µg/mL

# returns recorded MIC (system: Staphylococcus aureus MRSA (COL)) for Cc1nc(-c2ccc(-c3ccc(Cl)cc3)o2)[nH]c1-c1ccccc1
3 to 10 µg/mL

Tell me reported MIC for Cc1nc(-c2ccc(-c3cccc(Cl)c3)o2)[nH]c1-c1ccccc1 , tested with Staphylococcus aureus MRSA (COL).
11 to 201 µg/mL

Provide value of MIC for this record tested with Staphylococcus aureus MRSA (COL): Cc1[nH]c(-c2cnn(-c3ccc(F)cc3)c2)nc1-c1ccccc1
20 to 50 µg/mL

Give Staphylococcus aureus MRSA (COL) MIC for Cc1nc(-c2ccc(-c3cccc(C(F)(F)F)c3)o2)[nH]c1-c1ccccc1
1 to 3 µg/mL

Give recorded MIC with Staphylococcus aureus MRSA (COL) for the following compound: Cc1nc(-c2ccc(-c3cc4ccccc4o3)o2)[nH]c1-c1ccccc1
11 to 201 µg/mL

Field: MIC (Staphylococcus aureus MRSA (COL)). Entry: Cc1nc(-c2ccc(-c3ccc(Cl)c(OC(F)(F)F)c3)o2)[nH]c1-c1ccccc1
3 to 10 µg/mL

Query for Staphylococcus aureus MRSA (COL): what MIC does the record show for Cc1[nH]c(-c2ccc(-c3cccc(F)c3C)o2)nc1-c1ccccc1 ?
20 to 50 µg/mL

Checklist item: MIC tested on Staphylococcus aureus MRSA (COL), entry Cc1[nH]c(-c2ccc(-c3ccccc3Cl)o2)nc1-c1ccccc1 , value?
11 to 201 µg/mL

// fetch Staphylococcus aureus MRSA (COL) MIC for Cc1[nH]c(-c2ccc(-c3ccc(OC(F)(F)F)c(Cl)c3)o2)nc1-c1ccc(Cl)cc1
11 to 201 µg/mL

Give Staphylococcus aureus MRSA (COL) MIC for Cc1nc(-c2ccc(-c3cccc(F)c3)o2)[nH]c1-c1ccccc1
3 to 10 µg/mL

MIC of Cc1ccc(-c2ccc(-c3nc(-c4ccccc4)c(C)[nH]3)o2)cc1 on Staphylococcus aureus MRSA (COL)?
20 to 50 µg/mL

Source of measurements: patent US10322110B2
